Molecular target: T1, LGP2 (UniProt Q96C10 1-678)
T1 sequence: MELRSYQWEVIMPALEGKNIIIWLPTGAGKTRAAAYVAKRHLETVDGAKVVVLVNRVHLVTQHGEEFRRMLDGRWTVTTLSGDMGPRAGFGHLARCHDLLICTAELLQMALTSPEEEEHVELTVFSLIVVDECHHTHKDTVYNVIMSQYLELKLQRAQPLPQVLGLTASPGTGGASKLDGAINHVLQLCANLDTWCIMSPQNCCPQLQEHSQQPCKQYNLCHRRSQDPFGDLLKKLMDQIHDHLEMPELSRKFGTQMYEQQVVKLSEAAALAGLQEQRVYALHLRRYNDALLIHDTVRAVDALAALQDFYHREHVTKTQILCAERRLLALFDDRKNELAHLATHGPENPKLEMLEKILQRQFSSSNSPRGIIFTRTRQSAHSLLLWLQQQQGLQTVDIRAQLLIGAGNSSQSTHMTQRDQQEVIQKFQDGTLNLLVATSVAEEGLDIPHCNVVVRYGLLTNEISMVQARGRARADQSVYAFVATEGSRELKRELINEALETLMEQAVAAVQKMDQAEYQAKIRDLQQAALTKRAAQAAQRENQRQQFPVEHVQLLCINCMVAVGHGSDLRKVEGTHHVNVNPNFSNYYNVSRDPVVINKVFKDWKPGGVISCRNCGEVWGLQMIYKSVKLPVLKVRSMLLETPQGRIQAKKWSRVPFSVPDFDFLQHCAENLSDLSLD
Experiment: single-molecule TIRF
pKd: −log10 of the molar value.

# binder, pKd
records = [
    ("44bp dsRNA (dsRNA, strand 2 5' amino modifier C6 (5AmMC6)) RNA 1: CGAGCAGACUGGCAAUCCGGAUCUCCCAGGCCCGGCUUUCAAGC RNA 2: GCUUGAAAGCCGGGCCUGGGAGAUCCGGAUUGCCAGUCUGCUCG", 7.25),
]
